Procedure text: In vitro dissolution of amorphous solid dispersions in simulated intestinal fluid at 37° C.
Type: physicochemical
Experimental conditions: 12% load analog in PVP K-30 amorphous dispersion, target conc 2 mg/mL, SIF 37° C., t = 5 min
Could you please report measured Supersaturated concentration of analog/polymer dispersions in SIF at 37° C. (t = 5 min) for the items listed next?
Answers are plain numbers, in mg/ml.

COC1CC(C)CC2=C(N)C(=O)C=C(NC(=O)C(C)=CC=CC(OC)C(OC(N)=O)C(C)=CC(C)C1=O)C2=O (centres unmarked) | 0.395
CO[C@H]1/C=C\C=C(/C)C(=O)NC2=CC(=O)C(NC(C)=O)=C(C[C@@H](C)C[C@H](OC)[C@H](O)[C@@H](C)/C=C(\C)[C@@H]1OC(N)=O)C2=O | 1.568
CO[C@H]1/C=C\C=C(/C)C(=O)NC2=CC(=O)C(N3CCC3)=C(C[C@@H](C)C[C@H](OC)[C@H](O)[C@@H](C)/C=C(\C)[C@@H]1OC(N)=O)C2=O | 0.167
CO[C@H]1/C=C\C=C(/C)C(=O)NC2=CC(=O)C(NCC3CC3)=C(C[C@@H](C)C[C@H](OC)[C@H](O)[C@@H](C)/C=C(\C)[C@@H]1OC(N)=O)C2=O | 0.0573

(Q) Would you kindly share the measured Supersaturated concentration of analog/polymer dispersions in SIF at 37° C. (t = 5 min) for CO[C@H]1C[C@H](C)CC2=C(N)C(=O)C=C(NC(=O)/C(C)=C/C=C\[C@H](OC)[C@@H](OC(N)=O)/C(C)=C/[C@H](C)C1OC(C)=O)C2=O (some centres unmarked) ?
(A) 0.167

* * *

Could you please report measured Supersaturated concentration of analog/polymer dispersions in SIF at 37° C. (t = 5 min) for the items listed next?
Procedure text: In vitro dissolution of amorphous solid dispersions in simulated intestinal fluid at 37° C.
Format: physicochemical
Experimental conditions: 12% load analog in PVP K-30 amorphous dispersion, target conc 2 mg/mL, SIF 37° C., t = 5 min
Give bare numbers, in mg/ml.

CO[C@H]1/C=C\C=C(/C)C(=O)NC2=CC(=O)C(NCCF)=C(C[C@@H](C)C[C@H](OC)[C@H](O)[C@@H](C)/C=C(\C)[C@@H]1OC(N)=O)C2=O [17-fluoroethyl-AG, 17-(fluoroethyl)aminogeldanamycin] | 0.234

Next item in the queue.
(Q) Would you kindly share the measured Supersaturated concentration of analog/polymer dispersions in SIF at 37° C. (t = 5 min) for CO[C@H]1/C=C\C=C(/C)C(=O)NC2=CC(=O)C(N)=C(C[C@@H](C)C[C@H](OC)[C@H](O)[C@@H](C)/C=C(\C)[C@@H]1OC(N)=O)C2=O [17-AG, 17-amino-geldanamycin] ?
(A) 0.712

* * *

Procedure text: Equilibrium solubility in SIF
Assay type: physicochemical
Experimental conditions: simulated intestinal fluid (SIF), pH 6.8, fassgf or other biorelevant, thermodynamic from solid; SIF, 37° C.; read-out: Equilibrium solubility of 17-AG in SIF @ 37° C.
Measured endpoint: solubility thermodynamic (µg/mL)
One number for each entry, in µg/mL.

(Q) Would you kindly share the measured solubility thermodynamic for "CO[C@H]1/C=C\C=C(/C)C(=O)NC2=CC(=O)C(N)=C(C[C@@H](C)C[C@H](OC)[C@H](O)[C@@H](C)/C=C(\C)[C@@H]1OC(N)=O)C2=O" ?
(A) 4

// data source = patent US8357676B2
